Quick list: OD450 nm per entry.
Target: T1, hSEMA4D ECD-His (His-tagged human SEMA4D protein extracellular domain, Met22-Arg734) (human, UniProt Q92854 22-734)
T1 construct: Expressed in CHO-S cells, purified on Ni column; also called protein immunogen; immunogen A; not shown: His tag of the pCP vector
T1 sequence: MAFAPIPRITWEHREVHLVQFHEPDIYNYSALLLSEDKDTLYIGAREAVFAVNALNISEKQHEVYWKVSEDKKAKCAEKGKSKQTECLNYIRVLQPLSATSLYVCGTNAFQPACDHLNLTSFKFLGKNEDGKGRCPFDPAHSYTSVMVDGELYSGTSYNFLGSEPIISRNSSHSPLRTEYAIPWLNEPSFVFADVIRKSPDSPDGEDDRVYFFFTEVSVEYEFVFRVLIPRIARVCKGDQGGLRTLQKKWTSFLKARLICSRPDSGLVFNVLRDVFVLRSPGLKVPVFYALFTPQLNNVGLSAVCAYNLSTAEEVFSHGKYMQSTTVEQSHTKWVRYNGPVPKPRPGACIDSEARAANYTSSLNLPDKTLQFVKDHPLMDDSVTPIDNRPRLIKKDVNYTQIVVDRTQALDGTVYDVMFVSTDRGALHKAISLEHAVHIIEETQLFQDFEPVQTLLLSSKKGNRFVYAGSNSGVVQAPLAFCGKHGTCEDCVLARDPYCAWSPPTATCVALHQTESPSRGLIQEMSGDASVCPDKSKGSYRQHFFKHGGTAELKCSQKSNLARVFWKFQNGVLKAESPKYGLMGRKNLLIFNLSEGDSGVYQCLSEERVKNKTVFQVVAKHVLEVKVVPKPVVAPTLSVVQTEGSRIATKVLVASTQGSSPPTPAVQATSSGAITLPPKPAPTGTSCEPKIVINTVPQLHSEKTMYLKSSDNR
Assay: ELISA, coated hSEMA4D ECD-His; Ab 0.0533 nM
// response body must contain only the number

Recorded OD450 nm, per entry:
37F11F9 (antibody, V domains shown, Mouse monoclonal antibody purified from hybridoma supernatant on protein A) VH: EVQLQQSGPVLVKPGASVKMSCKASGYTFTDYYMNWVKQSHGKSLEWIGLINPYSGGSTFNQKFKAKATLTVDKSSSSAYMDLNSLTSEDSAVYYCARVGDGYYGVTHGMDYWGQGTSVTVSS VL: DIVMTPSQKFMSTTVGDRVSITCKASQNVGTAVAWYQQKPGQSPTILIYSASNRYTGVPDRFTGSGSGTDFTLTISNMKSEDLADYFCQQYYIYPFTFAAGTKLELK = 0.365
31C11G2 (antibody, V domains shown, Mouse monoclonal antibody purified from hybridoma supernatant on protein A) VH: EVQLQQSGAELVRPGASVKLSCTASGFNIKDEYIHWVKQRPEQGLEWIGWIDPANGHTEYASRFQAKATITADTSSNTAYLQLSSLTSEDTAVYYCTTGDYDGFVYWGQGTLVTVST VL: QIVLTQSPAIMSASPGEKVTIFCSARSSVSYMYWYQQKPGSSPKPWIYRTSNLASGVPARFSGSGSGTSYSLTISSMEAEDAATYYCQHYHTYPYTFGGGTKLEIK = 0.817

Query string: Given the binder 37C4F7 (antibody, V domains shown, Mouse monoclonal antibody purified from hybridoma supernatant on protein A) VH: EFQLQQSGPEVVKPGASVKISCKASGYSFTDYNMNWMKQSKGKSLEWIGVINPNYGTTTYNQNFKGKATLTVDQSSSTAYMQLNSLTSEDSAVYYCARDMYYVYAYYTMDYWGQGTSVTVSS VL: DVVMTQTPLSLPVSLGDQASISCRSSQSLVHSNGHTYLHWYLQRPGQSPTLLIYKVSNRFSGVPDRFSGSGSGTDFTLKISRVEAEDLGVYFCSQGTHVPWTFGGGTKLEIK , what is its reported OD450 nm?
Result string: 0.162
